Listed below are molecules with IC50 for Matrix metalloproteinase-9 (Homo sapiens), each taken from published literature.
One number for each entry, in µM.

Here is how some molecules turned out for IC50.
INSERT INTO measurements (molecule, measured_metric, unit_text, test_result) VALUES
  ('COc1ccc(S(=O)(=O)N(Cc2cccnc2Br)[C@@H](C(=O)NO)C(C)C)cc1', 'IC50', 'µM', 0.103),
  ('Cn1ccc(=O)n(CC(CS(=O)(=O)c2ccc(Oc3ccc(OC(F)(F)F)cc3)cc2)N(O)C=O)c1=O (stereo not drawn)', 'IC50', 'µM', 0.0014),
  ('Cc1cc(COc2ccc(S(=O)(=O)N(C)C3(C(=O)NO)CN(C(=O)CC(C)C)C3)cc2)c2ccccc2n1', 'IC50', 'µM', 2.2);

Value (IC50, Matrix metalloproteinase-9 (Homo sapiens)) for record COc1ccc(S(=O)(=O)N(Cc2ccc(Br)nc2)[C@@H](C(=O)NO)C(C)C)cc1 = 0.023
